Values from ChEMBL document CHEMBL1157790

system: Mycobacterium tuberculosis; experiment: Antimycobacterial activity against Mycobacterium tuberculosis H37Ra at 25 ug/ml after 6 days by microplate alamar blue assay; format: functional; conditions: 144 h
property_name: inhibition at 25 µg/mL (%)
The reply should be a number in %, with the unit left off.

>>> result_value("O=c1[nH]c(=O)n([C@H]2C[C@@H](Br)[C@@H](CO)O2)cc1F")
40

Reported inhibition at 25 µg/mL for Mycobacterium tuberculosis, given O=c1[nH]c(=O)n([C@@H]2O[C@H](CO)[C@@H](Br)[C@@H]2O)cc1F ?
50

Reported inhibition at 25 µg/mL for Mycobacterium tuberculosis, given O=c1[nH]c(=O)n([C@@H]2O[C@H](CO)[C@H](O)[C@H]2Br)cc1F ?
50

Reported inhibition at 25 µg/mL for Mycobacterium tuberculosis, given O=c1[nH]c(=O)n([C@H]2C[C@@H](Cl)[C@@H](CO)O2)cc1F ?
40

Reported inhibition at 25 µg/mL for Mycobacterium tuberculosis, given N[C@@H]1CONC1=O ?
80
